Target: S. aureus GyrB ATPase (Staphylococcus aureus, UniProt P0A0K8)
Sequence (P0AES4 whole entry): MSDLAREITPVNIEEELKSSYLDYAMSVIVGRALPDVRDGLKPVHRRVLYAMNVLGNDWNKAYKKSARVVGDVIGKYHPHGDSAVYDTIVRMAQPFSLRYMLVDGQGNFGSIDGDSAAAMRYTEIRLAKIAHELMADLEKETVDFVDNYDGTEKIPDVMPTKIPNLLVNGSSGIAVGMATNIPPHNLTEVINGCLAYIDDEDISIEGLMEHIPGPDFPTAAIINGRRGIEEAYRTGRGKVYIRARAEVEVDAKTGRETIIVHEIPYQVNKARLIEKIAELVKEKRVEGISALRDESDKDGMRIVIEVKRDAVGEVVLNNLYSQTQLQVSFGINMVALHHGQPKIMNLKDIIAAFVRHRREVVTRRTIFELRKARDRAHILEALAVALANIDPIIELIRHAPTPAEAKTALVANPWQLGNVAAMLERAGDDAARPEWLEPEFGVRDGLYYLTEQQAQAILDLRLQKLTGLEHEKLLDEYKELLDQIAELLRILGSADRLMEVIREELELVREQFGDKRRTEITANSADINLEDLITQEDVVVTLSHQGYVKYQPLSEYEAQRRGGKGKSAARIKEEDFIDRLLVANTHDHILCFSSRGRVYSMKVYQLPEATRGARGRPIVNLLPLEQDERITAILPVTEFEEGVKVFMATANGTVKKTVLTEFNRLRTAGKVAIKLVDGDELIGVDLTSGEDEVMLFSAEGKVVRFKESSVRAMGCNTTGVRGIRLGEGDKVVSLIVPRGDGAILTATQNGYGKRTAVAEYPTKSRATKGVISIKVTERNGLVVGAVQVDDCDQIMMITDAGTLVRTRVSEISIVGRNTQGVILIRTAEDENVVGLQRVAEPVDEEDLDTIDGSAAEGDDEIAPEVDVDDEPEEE
Sequence (P0A0K8 whole entry): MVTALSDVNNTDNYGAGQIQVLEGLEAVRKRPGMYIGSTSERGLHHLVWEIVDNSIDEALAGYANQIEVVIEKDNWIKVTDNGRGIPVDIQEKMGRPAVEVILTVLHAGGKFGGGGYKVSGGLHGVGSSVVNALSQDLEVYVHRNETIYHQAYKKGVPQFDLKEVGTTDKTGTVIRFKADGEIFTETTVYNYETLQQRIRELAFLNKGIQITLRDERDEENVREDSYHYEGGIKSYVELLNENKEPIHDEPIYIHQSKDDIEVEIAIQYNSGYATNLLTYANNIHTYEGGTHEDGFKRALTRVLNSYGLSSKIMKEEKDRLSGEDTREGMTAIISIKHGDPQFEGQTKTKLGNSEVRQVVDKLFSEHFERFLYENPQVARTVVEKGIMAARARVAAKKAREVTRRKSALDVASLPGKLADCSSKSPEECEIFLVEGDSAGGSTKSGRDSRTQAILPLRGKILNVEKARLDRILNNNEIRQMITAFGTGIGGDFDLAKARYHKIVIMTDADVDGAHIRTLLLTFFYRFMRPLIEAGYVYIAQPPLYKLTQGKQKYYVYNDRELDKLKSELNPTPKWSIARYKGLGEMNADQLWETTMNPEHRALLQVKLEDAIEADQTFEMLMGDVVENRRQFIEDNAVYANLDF
Assay: S. aureus GyrB ATPase inhibition (ammonium molybdate/malachite green phosphate detection)
Assay type: biochemical
Settings: compound concentration of 1 μM (unless otherwise noted)
Answer each item with its documented inhibition at 1 µM.
Give the value, in units of %, as a plain number.

[Q] inhibition at 1 µM lookup needed for `CO[C@H]1CN(c2nc(-c3nccc(N4CCOCC4)n3)c(C(=O)O)s2)CC[C@H]1NC(=O)c1[nH]c(C)c(Cl)c1Cl` , thanks.
[A] 100

[Q] Also, Cc1[nH]c(C(=O)N[C@@H]2CCN(c3nc(-c4cnc(N5CCN(CC6CCCO6)CC5)cn4)c(C(=O)O)s3)C[C@@H]2C)c(Cl)c1Cl (stereo partly shown) please.
[A] 116

[Q] Also, `CO[C@H]1CN(c2nc(-c3cnc(NCCN4CCOCC4)cn3)c(C(=O)O)s2)CC[C@H]1NC(=O)c1[nH]c(C)c(Cl)c1Cl` please.
[A] 107

[Q] Also, `CCCO[C@H]1CN(c2nc(-c3ncnn3C)c(C(=O)O)s2)CC[C@H]1NC(=O)c1cc(Cl)c(C)[nH]1` please.
[A] 106

[Q] Also, `CO[C@H]1CN(c2nc(-c3cnc(NCCN4CCNC4=O)cn3)c(C(=O)O)s2)CC[C@H]1NC(=O)c1[nH]c(C)c(Cl)c1Cl` please.
[A] 108

[Q] Also, `CO[C@H]1CN(c2nc(-c3cnc(N4CCN(CC(C)C)CC4)cn3)c(C(=O)O)s2)CC[C@H]1NC(=O)c1[nH]c(C)c(Cl)c1Cl` please.
[A] 104

[Q] Also, `CCCO[C@H]1CN(c2nc(-c3ncccc3F)c(C(=O)O)s2)CC[C@H]1NC(=O)c1[nH]c(C)c(Cl)c1C#N` please.
[A] 109

[Q] Also, `Cc1[nH]c(C(=O)N[C@@H]2CCN(c3nc(-c4cnc(N5CCOCC5)cn4)c(C(=O)O)s3)C[C@@H]2C)c(Cl)c1Cl` please.
[A] 110

[Q] Also, `CCCO[C@H]1CN(c2nc(-c3ncccc3F)c(C(=O)O)s2)CC[C@H]1NC(=O)c1[nH]c(C)c(Cl)c1Cl` please.
[A] 113

[Q] Also, `CCO[C@H]1CN(c2nc(-c3cnc(N4CCOCC4)cn3)c(C(=O)O)s2)CC[C@H]1NC(=O)c1[nH]c(C)c(Cl)c1Cl` please.
[A] 109

[Q] Also, CCO[C@H]1CN(c2nc(-c3cnc(N4CCN(CC5CCCN(C)C5)CC4)cn3)c(C(=O)O)s2)CC[C@H]1NC(=O)c1[nH]c(C)c(Cl)c1Cl (stereo partly shown) please.
[A] 112

[Q] Also, `CO[C@H]1CN(c2nc(-c3cnc(N4CCN[C@H](C)C4)cn3)c(C(=O)O)s2)CC[C@H]1NC(=O)c1[nH]c(C)c(Cl)c1Cl` please.
[A] 107

[Q] Also, CO[C@H]1CN(c2nc(-c3cnc(N4CCN(CC5CCCO5)CC4)cn3)c(C(=O)O)s2)CC[C@H]1NC(=O)c1[nH]c(C)c(Cl)c1Cl (stereo partly shown) please.
[A] 103

* * *

Molecular target: S. aureus GyrB ATPase (Staphylococcus aureus)
Test: S. aureus GyrB ATPase inhibition (ammonium molybdate/malachite green phosphate detection)
Format: biochemical
Details: compound concentration of 1 μM (unless otherwise noted)
Answer each item with its documented inhibition at 1 µM.
Give the value, in units of %, as a plain number.

[Q] inhibition at 1 µM lookup needed for `Cc1[nH]c(C(=O)N[C@@H]2CCN(c3nc(-c4cnc(NCCN5CCCC5=O)cn4)c(C(=O)O)s3)C[C@@H]2C)c(Cl)c1Cl` , thanks.
[A] 102

[Q] Also, `CCO[C@H]1CN(c2nc(-c3cnc(NCCN4CCOCC4)cn3)c(C(=O)O)s2)CC[C@H]1NC(=O)c1[nH]c(C)c(Cl)c1Cl` please.
[A] 105

[Q] Also, `CCCO[C@H]1CN(c2nc(-c3nccn3CCOC)c(C(=O)O)s2)CC[C@H]1NC(=O)c1[nH]c(C)c(Cl)c1C#N` please.
[A] 105

[Q] Also, `C=CCO[C@H]1CN(c2nc(-c3ncccc3F)c(C(=O)O)s2)CC[C@H]1NC(=O)c1[nH]c(C)c(Cl)c1C#N` please.
[A] 99

[Q] Also, `CCO[C@H]1CN(c2nc(-c3ncnn3C)c(C(=O)O)s2)CC[C@H]1NC(=O)c1[nH]c(C)c(Cl)c1C#N` please.
[A] 106

[Q] Also, `CCO[C@H]1CN(c2nc(-c3cnccn3)c(C(=O)O)s2)CC[C@H]1NC(=O)c1cc(Cl)c(C)[nH]1` please.
[A] 108

[Q] Also, `C=CCO[C@H]1CN(c2nc(-c3ncnn3C)c(C(=O)O)s2)CC[C@H]1NC(=O)c1[nH]c(C)c(Cl)c1Cl` please.
[A] 99

[Q] Also, `Cc1[nH]c(C(=O)N[C@@H]2CCN(c3nc(-c4ncnn4C)c(C(=O)O)s3)C[C@@H]2C)c(C#N)c1Cl` please.
[A] 97

[Q] Also, `Cc1[nH]c(C(=O)N[C@@H]2CCN(c3nc(-c4cnc(NCCN(C)C)cn4)c(C(=O)O)s3)C[C@@H]2C)c(Cl)c1Cl` please.
[A] 102

[Q] Also, `Cc1[nH]c(C(=O)N[C@@H]2CCN(c3nc(-c4cnc(N5CCN[C@H](C)C5)cn4)c(C(=O)O)s3)C[C@@H]2C)c(Cl)c1Cl` please.
[A] 101

[Q] Also, `CCO[C@H]1CN(c2nc(-c3cnc(N4CCN(CCN(CC)CC)CC4)cn3)c(C(=O)O)s2)CC[C@H]1NC(=O)c1[nH]c(C)c(Cl)c1Cl` please.
[A] 117

[Q] Also, `CCO[C@H]1CN(c2nc(-c3cnc(NCCN(C)C)cn3)c(C(=O)O)s2)CC[C@H]1NC(=O)c1[nH]c(C)c(Cl)c1Cl` please.
[A] 104

[Q] Also, `COCC(COC)Nc1cnc(-c2nc(N3CC[C@@H](NC(=O)c4[nH]c(C)c(Cl)c4Cl)[C@@H](OC)C3)sc2C(=O)O)cn1` please.
[A] 103

[Q] Also, `CCCO[C@H]1CN(c2nc(-c3ncnn3C)c(C(=O)O)s2)CC[C@H]1NC(=O)c1[nH]c(C)c(Cl)c1C#N` please.
[A] 108

[Q] Also, `CCN(CC)CCN1CCN(c2cnc(-c3nc(N4CC[C@@H](NC(=O)c5[nH]c(C)c(Cl)c5Cl)[C@@H](C)C4)sc3C(=O)O)cn2)CC1` please.
[A] 103

* * *

Molecular target: S. aureus GyrB ATPase (Staphylococcus aureus, UniProt P0A0K8)
Assay: S. aureus GyrB ATPase inhibition (ammonium molybdate/malachite green phosphate detection)
Format: biochemical
Settings: compound concentration of 1 μM (unless otherwise noted)
endpoint: inhibition at 1 µM

[Q] inhibition at 1 µM lookup needed for `Cc1[nH]c(C(=O)N[C@@H]2CCN(c3nc(-c4cnc(N5CCN(C)CC5)cn4)c(C(=O)O)s3)C[C@@H]2C)c(Cl)c1Cl` , thanks.
[A] 113%

[Q] Also, `Cc1[nH]c(C(=O)N[C@@H]2CCN(c3nc(-c4cnc(NCCN5CCNC5=O)cn4)c(C(=O)O)s3)C[C@@H]2C)c(Cl)c1Cl` please.
[A] 104%

[Q] Also, `CCN1CCN(c2ccnc(-c3nc(N4CC[C@@H](NC(=O)c5[nH]c(C)c(Cl)c5Cl)[C@@H](OC)C4)sc3C(=O)O)n2)CC1` please.
[A] 109%

[Q] Also, `CCCO[C@H]1CN(c2nc(-c3ncccc3F)c(C(=O)O)s2)CC[C@H]1NC(=O)c1cc(Cl)c(C)[nH]1` please.
[A] 103%

* * *

Target: S. aureus GyrB ATPase (Staphylococcus aureus, UniProt P0A0K8)
Experiment: S. aureus GyrB ATPase inhibition (ammonium molybdate/malachite green phosphate detection)
Type: biochemical
Settings: compound concentration of 1 μM (unless otherwise noted)
Description: E. coli GyrB ATPase Inhibition Activity: Compounds can be tested for inhibition of E. coli GyrB ATPase activity using an ammonium molybdate/malachite green-based phosphate detection assay (Lanzetta, P. A., L. J. Alvarez, P. S. Reinach, and O. A. Candia, 1979, 100: 95-97). […] An IC50 measurement of compound potency for each compound can be determined from reactions performed in the presence of 10 different compound concentrations. […]
endpoint: inhibition at 1 µM

[Q] inhibition at 1 µM lookup needed for Cc1[nH]c(C(=O)N[C@@H]2CCN(c3nc(-c4ncnn4C)c(C(=O)O)s3)C[C@@H]2C)c(Cl)c1Cl [Example 22] , thanks.
[A] 112%

[Q] Also, CCC(CC)N1CCN(c2cnc(-c3nc(N4CC[C@@H](NC(=O)c5[nH]c(C)c(Cl)c5Cl)[C@@H](C)C4)sc3C(=O)O)cn2)CC1 [Example 179] please.
[A] 104%

[Q] Also, CCCO[C@H]1CN(c2nc(-c3ncnn3C)c(C(=O)O)s2)CC[C@H]1NC(=O)c1[nH]c(C)c(Cl)c1Cl [Example 215] please.
[A] 106%

[Q] Also, CCO[C@H]1CN(c2nc(-c3ncccc3F)c(C(=O)O)s2)CC[C@H]1NC(=O)c1[nH]c(C)c(Cl)c1Cl [Example 10] please.
[A] 90%

[Q] Also, CO[C@@H]1CN(c2nc(-c3cnc(N4CCN(C)CC4)cn3)c(C(=O)O)s2)CC[C@@H]1NC(=O)c1[nH]c(C)c(Cl)c1Cl [Example 61] please.
[A] 105%

[Q] Also, CO[C@H]1CN(c2nc(-c3nccc(N4CCN(C)CC4)n3)c(C(=O)O)s2)CC[C@H]1NC(=O)c1[nH]c(C)c(Cl)c1Cl [Example 191] please.
[A] 102%

[Q] Also, CCO[C@H]1CN(c2nc(-c3cnc(N4CCCCC4)cn3)c(C(=O)O)s2)CC[C@H]1NC(=O)c1[nH]c(C)c(Cl)c1Cl [Example 86] please.
[A] 105%

Values compiled from patent US8071605B2.
